Value source: patent US12685735B2

We begin with a simple list: items and their reported IC50.
- STUDY SYSTEM: BRG-1 (Homo sapiens, UniProt P51532)
- Sequence (P51532 whole entry): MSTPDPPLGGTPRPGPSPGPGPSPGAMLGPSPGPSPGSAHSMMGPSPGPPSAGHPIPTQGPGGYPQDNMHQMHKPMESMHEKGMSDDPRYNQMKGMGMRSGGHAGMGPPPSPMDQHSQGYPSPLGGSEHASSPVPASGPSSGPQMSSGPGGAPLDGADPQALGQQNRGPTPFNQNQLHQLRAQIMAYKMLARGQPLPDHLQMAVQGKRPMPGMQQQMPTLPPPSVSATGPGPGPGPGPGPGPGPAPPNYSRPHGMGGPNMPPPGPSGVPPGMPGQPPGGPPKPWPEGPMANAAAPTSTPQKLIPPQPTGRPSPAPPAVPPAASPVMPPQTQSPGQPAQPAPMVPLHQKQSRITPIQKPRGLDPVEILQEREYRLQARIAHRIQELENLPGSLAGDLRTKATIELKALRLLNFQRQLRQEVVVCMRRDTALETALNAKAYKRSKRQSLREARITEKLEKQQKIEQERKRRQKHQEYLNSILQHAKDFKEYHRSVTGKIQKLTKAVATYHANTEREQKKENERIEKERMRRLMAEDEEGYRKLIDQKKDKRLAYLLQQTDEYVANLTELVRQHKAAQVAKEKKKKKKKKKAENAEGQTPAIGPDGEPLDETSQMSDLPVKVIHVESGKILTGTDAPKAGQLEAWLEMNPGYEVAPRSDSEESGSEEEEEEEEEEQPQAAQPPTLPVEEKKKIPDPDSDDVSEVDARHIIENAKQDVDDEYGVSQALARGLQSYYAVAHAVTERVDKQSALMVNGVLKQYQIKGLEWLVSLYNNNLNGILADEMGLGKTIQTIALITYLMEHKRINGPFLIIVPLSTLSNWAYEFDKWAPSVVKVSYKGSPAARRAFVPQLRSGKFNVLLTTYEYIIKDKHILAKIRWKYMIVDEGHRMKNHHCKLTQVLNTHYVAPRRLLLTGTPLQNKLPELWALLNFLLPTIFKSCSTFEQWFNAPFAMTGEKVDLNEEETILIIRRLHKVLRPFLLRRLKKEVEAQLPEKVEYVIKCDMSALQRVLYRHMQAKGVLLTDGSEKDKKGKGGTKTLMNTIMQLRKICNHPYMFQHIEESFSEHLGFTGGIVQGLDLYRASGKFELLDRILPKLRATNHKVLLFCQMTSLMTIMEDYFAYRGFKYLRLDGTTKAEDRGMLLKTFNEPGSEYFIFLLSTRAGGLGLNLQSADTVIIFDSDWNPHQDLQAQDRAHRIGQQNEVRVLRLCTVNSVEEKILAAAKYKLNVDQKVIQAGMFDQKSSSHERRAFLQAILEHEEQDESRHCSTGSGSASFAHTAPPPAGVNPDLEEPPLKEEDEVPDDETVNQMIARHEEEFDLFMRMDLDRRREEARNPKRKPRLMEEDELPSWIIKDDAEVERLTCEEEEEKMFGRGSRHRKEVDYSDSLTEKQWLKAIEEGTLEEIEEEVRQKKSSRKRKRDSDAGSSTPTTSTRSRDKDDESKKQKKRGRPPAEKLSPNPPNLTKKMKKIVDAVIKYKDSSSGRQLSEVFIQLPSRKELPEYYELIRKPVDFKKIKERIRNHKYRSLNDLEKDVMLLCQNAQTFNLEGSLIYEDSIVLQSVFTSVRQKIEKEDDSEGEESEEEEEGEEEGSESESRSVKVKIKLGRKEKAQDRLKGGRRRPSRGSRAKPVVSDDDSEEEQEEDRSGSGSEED
- ASSAY NOTES: ATPase catalytic activity assay of BRG-1 (ADP-Glo)
- Assay type: biochemical
- RUN PARAMETERS: ATPase catalytic activity, ADP-Glo; read-out: BRG1 IC50 (μM)*

Examples with their reported IC50 follow.
1) CC(C)(CN)c1cccc(C(=O)NCC(=O)Nc2nc(-c3cccc(-c4cccc(CN)c4)c3)cs2)c1
1 to 5 µM
2) C[C@@H]1CN(c2cccc(-c3csc(NC(=O)CNC(=O)c4ccc5c(c4)[C@@H]([C@H](C)O)CC5)n3)n2)C[C@H](C)O1
> 5 µM
3) C[C@@H]1CN(c2cccc(-c3csc(NC(=O)CNC(=O)c4ccc5c(c4)[C@@H](C)COC5)n3)n2)C[C@H](C)O1
0.1 to 1 µM
4) COc1cc(F)cc(-c2csc(NC(=O)CNC(=O)c3ccc4c(c3)[C@](C)(C#N)COC4)n2)c1
< 0.1 µM

Q: Dear colleague, I am looking for the recorded IC50 of the following compound: COCC(NC(=O)c1ccc2c(c1)[C@](C)(F)COC2)C(=O)Nc1nc(-c2cccc(C(F)F)c2)cs1 (stereo in doubt)
Result: 0.1 to 1 µM

Q: Which IC50 is reported for this compound? C[C@@H]1CN(c2cccc(-c3csc(NC(=O)CNC(=O)c4ccc5c(c4)[C@](C)(C#N)CCO5)n3)n2)C[C@H](C)O1
Result: < 0.1 µM

Q: Would you kindly share the measured IC50 for C[C@@H]1CN(c2cccc(-c3csc(NC(=O)CNC(=O)c4ccc5c(c4)[C@@]4(CCC[C@H]4O)CC5)n3)c2)C[C@H](C)O1 ?
Result: 1 to 5 µM

Q: Please look up its IC50: Cc1cc(-c2cccc(-c3csc(NC(=O)CNC(=O)c4cccc(S(=O)(=O)C(C)C)c4)n3)c2)ncn1
Result: 0.1 to 1 µM

Q: # get_value(readout='IC50', item= C[C@@H]1CN(c2cccc(-c3csc(NC(=O)CNC(=O)c4cccc([C@]5(F)C[C@@](C)(O)C5)c4)n3)c2)C[C@H](C)O1 )
Result: 1 to 5 µM

Q: # IC50 lookup, item Cn1ccc(-c2cccc(-c3csc(NC(=O)CNC(=O)c4ccc5c(c4)[C@@](C)(CO)CC5)n3)n2)n1
Result: 1 to 5 µM

Q: Would you mind telling me what IC50 value was observed for Cn1ccc2ccc(-c3csc(NC(=O)CNC(=O)c4cccc(C(C)(C)CN)c4)n3)cc2c1=O ?
Result: 1 to 5 µM

Q: Looking for the measured IC50 of C[C@@H]1CN(c2cccc(-c3csc(NC(=O)CNC(=O)c4ccc5c(c4)C(F)(C(F)F)COC5)n3)c2)C[C@H](C)O1 (stereo partly shown) [Compound 329] , can you help?
Result: < 0.1 µM

Q: Give the measured IC50 of C[C@@H]1CN(c2cccc(-c3csc(NC(=O)CNC(=O)c4cccc([C@@]5(O)CCOC5)c4)n3)n2)C[C@H](C)O1 .
Result: 1 to 5 µM

====

As shown below, each of these compounds has a reported IC50 value.
- STUDY SYSTEM: BRG-1 (Homo sapiens, UniProt P51532)
- ASSAY NOTES: ATPase catalytic activity assay of BRG-1 (ADP-Glo)
- Assay type: biochemical
- RUN PARAMETERS: ATPase catalytic activity, ADP-Glo; read-out: BRG1 IC50 (μM)*

Illustrative cases are given below, each with its answer.
1) C[C@@H]1CN(c2cccc(-c3csc(NC(=O)CNC(=O)c4ccc5c(c4)C(F)(C(F)F)CCO5)n3)n2)C[C@H](C)O1 (stereo in doubt) [Compound 273]
0.1 to 1 µM
2) Cc1cnc(O)c(-c2cccc(-c3csc(NC(=O)CNC(=O)c4ccc5c(c4)[C@@](C)(CO)CC5)n3)n2)c1
0.1 to 1 µM

Consider now this further compound.
Q: # IC50 lookup, item C[C@@H]1CN(c2cccc(-c3csc(NC(=O)CNC(=O)c4ccnc(C(C)(C)C)c4)n3)c2)C[C@H](C)O1
Result: 1 to 5 µM

====

- STUDY SYSTEM: UniProt:P51532
- ASSAY NOTES: ATPase catalytic activity assay of BRG-1 (ADP-Glo)
- Type: biochemical
- RUN PARAMETERS: ATPase catalytic activity, ADP-Glo; read-out: BRG1 Max % Inhibition
Consider the following molecules and their measured Emax readings.

1. C[C@@H]1CN(c2cccc(-c3csc(NC(=O)CNC(=O)c4ccc5c(c4)[C@@]4(COC5)CC4(F)F)n3)n2)C[C@H](C)O1
> 95%
2. CC(C)N1CCOc2ccc(C(=O)NCC(=O)Nc3nc(-c4cccc(N5C[C@@H](C)O[C@@H](C)C5)n4)cs3)cc21
> 80%
3. C[C@@H]1CN(c2cccc(-c3csc(NC(=O)CNC(=O)c4cccc(C(C)(C)CN)c4)n3)c2)C[C@H](C)O1
> 90%

Now look at this entry.
Q: If you can, please state the reported Emax value of C[C@@H]1CN(c2cccc(-c3csc(NC(=O)CNC(=O)c4ccc5c(c4)[C@@](F)(C(F)F)CCO5)n3)c2)C[C@H](C)O1 .
Result: > 95%

====

- STUDY SYSTEM: BRM (Homo sapiens, UniProt P51531)
- Sequence (P51531 whole entry): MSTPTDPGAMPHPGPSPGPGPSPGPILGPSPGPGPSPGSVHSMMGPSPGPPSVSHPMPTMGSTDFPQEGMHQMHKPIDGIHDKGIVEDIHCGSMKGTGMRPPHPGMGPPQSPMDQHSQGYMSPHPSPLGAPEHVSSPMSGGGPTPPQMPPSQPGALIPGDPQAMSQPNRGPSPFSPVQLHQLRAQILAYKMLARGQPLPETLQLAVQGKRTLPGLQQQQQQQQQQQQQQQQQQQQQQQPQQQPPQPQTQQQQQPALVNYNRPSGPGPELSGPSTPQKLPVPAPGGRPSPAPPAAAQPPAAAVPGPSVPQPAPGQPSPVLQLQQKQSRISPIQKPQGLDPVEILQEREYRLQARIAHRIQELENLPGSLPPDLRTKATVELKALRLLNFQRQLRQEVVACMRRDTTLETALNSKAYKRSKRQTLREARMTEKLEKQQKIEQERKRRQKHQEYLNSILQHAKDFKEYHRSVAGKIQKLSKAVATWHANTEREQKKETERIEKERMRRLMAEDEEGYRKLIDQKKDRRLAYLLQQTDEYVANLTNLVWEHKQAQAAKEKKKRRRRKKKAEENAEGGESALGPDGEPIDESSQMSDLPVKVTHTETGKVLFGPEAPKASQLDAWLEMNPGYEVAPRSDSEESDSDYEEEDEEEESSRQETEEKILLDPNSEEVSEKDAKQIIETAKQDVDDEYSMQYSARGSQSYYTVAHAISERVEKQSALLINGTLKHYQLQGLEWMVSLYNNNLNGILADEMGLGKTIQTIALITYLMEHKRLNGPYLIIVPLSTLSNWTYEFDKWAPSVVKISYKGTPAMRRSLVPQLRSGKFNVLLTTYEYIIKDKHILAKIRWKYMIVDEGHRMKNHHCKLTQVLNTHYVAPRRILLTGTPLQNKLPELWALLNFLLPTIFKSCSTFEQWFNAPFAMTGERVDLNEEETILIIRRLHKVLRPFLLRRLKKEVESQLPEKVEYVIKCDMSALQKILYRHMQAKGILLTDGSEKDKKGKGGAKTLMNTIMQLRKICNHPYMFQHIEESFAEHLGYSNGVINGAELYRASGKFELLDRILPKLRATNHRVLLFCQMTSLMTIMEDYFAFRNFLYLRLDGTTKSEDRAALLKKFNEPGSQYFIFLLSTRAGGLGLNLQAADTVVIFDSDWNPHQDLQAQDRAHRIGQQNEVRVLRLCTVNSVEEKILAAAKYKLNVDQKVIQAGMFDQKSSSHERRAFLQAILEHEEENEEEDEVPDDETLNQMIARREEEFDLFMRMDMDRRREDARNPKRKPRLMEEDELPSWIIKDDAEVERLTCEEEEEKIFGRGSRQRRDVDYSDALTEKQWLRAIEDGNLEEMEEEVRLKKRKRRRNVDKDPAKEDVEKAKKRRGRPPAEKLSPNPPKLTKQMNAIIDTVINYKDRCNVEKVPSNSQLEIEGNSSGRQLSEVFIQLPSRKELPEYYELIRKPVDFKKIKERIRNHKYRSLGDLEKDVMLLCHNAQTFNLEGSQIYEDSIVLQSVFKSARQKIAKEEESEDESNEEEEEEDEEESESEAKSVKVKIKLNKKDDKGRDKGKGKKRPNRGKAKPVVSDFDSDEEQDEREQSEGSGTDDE
- ASSAY NOTES: ATPase catalytic activity assay of BRM (ADP-Glo)
- Type: biochemical
- RUN PARAMETERS: read-out: BRM IC50 (μM)*
VALUE TYPE: IC50

Worked cases, IC50 given:
1) Cn1ncc(-c2cccc(-c3csc(NC(=O)CNC(=O)c4cccc(C(C)(C)CO)c4)n3)n2)n1
0.1 to 1 µM
2) Cc1cc(-c2cccc(-c3csc(NC(=O)CNC(=O)c4ccc(Cl)c(C(C)(C)CO)c4)n3)n2)ncn1
< 0.1 µM
3) C[C@@]1(C#N)COCc2ccc(C(=O)NCC(=O)Nc3nc(-c4cccc(N5CC6(CCO6)C5)c4)cs3)cc21
< 0.1 µM
4) C[C@@]1(C#N)COCc2ccc(C(=O)NCC(=O)Nc3nc(-c4cccc([C@H]5CC5(F)F)c4)cs3)cc21
< 0.1 µM
5) CN1C(=O)CCc2ccc(-c3csc(NC(=O)CNC(=O)c4ccc5c(c4)[C@](C)(CO)CC5)n3)cc21
0.1 to 1 µM

Q: Could you tell me which IC50 is on file for C[C@@H]1CN(c2cccc(-c3csc(NC(=O)CNC(=O)c4ccc5c(c4)[C@@](F)(C#N)COC5)n3)n2)C[C@H](C)O1 (single isomer, unassigned) ?
Result: < 0.1 µM

Q: Form field: reported IC50 of CC1(C)c2cc(C(=O)NCC(=O)Nc3nc(-c4cccc(-c5ccncc5)c4)cs3)ccc2C[C@H]1N
Result: < 0.1 µM

Q: # get_value(readout='IC50', item= CN1CCCc2ccc(C(=O)NCC(=O)Nc3nc(-c4cccc(-c5ccncc5)c4)cs3)cc2S1(=O)=O )
Result: < 0.1 µM

Q: So what does the record say about IC50 for COc1nc(C)cc(-c2cccc(-c3csc(NC(=O)CNC(=O)c4cccc(S(=O)(=O)C(C)C)c4)n3)c2)n1 ?
Result: < 0.1 µM

====

- STUDY SYSTEM: BRM (Homo sapiens, UniProt P51531)
- ASSAY NOTES: ATPase catalytic activity assay of BRM (ADP-Glo)
- Format: biochemical
Property: BRM Max % Inhibition; scope: individual compounds

Answered cases to consult:
1) CC(C)S(=O)(=O)c1cccc(C(=O)NCC(=O)Nc2nc(-c3cccc(-c4ccnc(C(F)(F)F)c4)c3)cs2)c1
>90%
2) C[C@@H]1CN(c2cccc(-c3csc(NC(=O)CNC(=O)c4ccc5c(c4)C(C)(C#N)CNC5)n3)c2)C[C@H](C)O1 (some centres unmarked) [Compound 310]
>95%
3) C[C@@H]1CN(c2cccc(-c3csc(NC(=O)CNC(=O)c4ccc5c(c4)[C@H](C)COC5)n3)n2)C[C@H](C)O1
>90%
4) COc1cccc(-c2csc(NC(=O)CNC(=O)c3ccc4c(c3)[C@](C)(C#N)COC4)n2)c1F
>95%
5) C[C@@]1(C#N)COCc2ccc(C(=O)NCC(=O)Nc3nc(-c4cccc([C@@]56CCOC[C@@H]5C6)n4)cs3)cc21
>95%
6) C[C@@H]1CN(c2cccc(-c3csc(NC(=O)CNC(=O)c4cccc([C@@]5(O)CCOC5)c4)n3)n2)C[C@H](C)O1
>80%
7) CC1CCN1c1cccc(-c2csc(NC(=O)CNC(=O)c3ccc4c(c3)[C@](C)(C#N)COC4)n2)c1 (some centres unmarked)
>95%
8) Cc1ccc(C(=O)NCC(=O)Nc2nc(-c3cccc(N4C[C@@H](C)O[C@@H](C)C4)c3)cs2)cc1S(=O)(=O)C(C)C
>95%

Read the next record carefully.
Q: Name the recorded BRM Max % Inhibition for CC(C)(CN)c1cccc(C(=O)NCC(=O)Nc2nc(-c3cccc(-c4ccnc(N)c4)c3)cs2)c1 .
Result: >95%
